Target: collagen type I
Assay: saturation binding of 99mTc-labelled peptide to collagen type I coated Maxisorp wells, one-site hyperbola fit
99mTc‑Chelate II = tetraamine chelate labelled with 99mTc, on the N-terminus
measured metric: Kd

I'd like to know its Kd. The binder in question is {99mTc‑Chelate II}-ANAALKAGELYKCILY-NH2 (also: 99mTc complex) [Imaging Agent 1: [99mTc-Chelate II]-…-NH2] 194 nM

Ref: patent US8304388B2
